System: SF-539 CNS
Assay: NCI-60 one-dose screen, 48 h (100 = growth as untreated, 0 = no growth, -100 = all killed)
Settings: 10 µM unless noted
This is part of a sample that, as a whole, favours compounds with a hit. Of some 83,000 tested, about 20% had one in any assay. Activity calls are given as the source filed them. Rule for the calls: active = growth percent below 10; inactive = the rest.

>  <smiles entry>
ClC(Cl)c1nc(-c2ccccc2)n2nc(-c3ccccc3)cc2n1

>  <growth>
0.564% (active)

$$$$
>  <smiles entry>
COC(=O)/C=C1/SC(=NCc2ccccc2)N(CCc2c[nH]c3ccccc23)C1=O

>  <growth>
105% (inactive)

$$$$
>  <smiles entry>
Fc1ccc2[nH]cc(-c3nc(-c4c[nH]c5c(Cl)nccc45)cs3)c2c1

>  <growth>
41.1% (inactive)

$$$$
>  <smiles entry>
O=C(Nc1ccc(Oc2cccc(Cl)c2)c(Cl)c1)c1cccnn1

>  <growth>
95.3% (inactive)

$$$$
>  <smiles entry>
O=C(Cc1ccc(/C=C/C(=O)c2ncc[nH]2)cc1)Nc1cc(F)c(F)c(F)c1

>  <growth>
5.66% (active)

$$$$

----------
System: SF-268 CNS
Test: NCI-60 one-dose screen, 48 h (100 = growth as untreated, 0 = no growth, -100 = all killed)
Settings: 10 µM unless noted
Compounds without any hit were thinned out: in the full panel of roughly 83,000, 20% have a hit.
metric name: growth (%)

>  <compound>
Cc1c(C(C)(C)O)cn2ncnc(Oc3ccc(NC(=O)Nc4ccc(Cl)c(C(F)(F)F)c4)c(F)c3)c12

>  <numeric value>
63.6

$$$$
>  <compound>
COc1ccc2c(c1)c(-c1nc(-c3ccc4ccccc4c3)cs1)cn2C

>  <numeric value>
100

$$$$
>  <compound>
CSc1nc2ccc(C)cc2cc1/C=C1/C=C(c2ccccc2)NC1=O

>  <numeric value>
66.3

$$$$
>  <compound>
O=C(Nc1nc(Cl)nc(Nc2ccc(N3CCOCC3=O)cc2)n1)c1ccc(Cl)s1

>  <numeric value>
95.9

$$$$
>  <compound>
CSc1nc(-c2ccco2)c(C#N)c(=O)n1C

>  <numeric value>
106

$$$$
>  <compound>
C#CCOc1cccc(Nc2ncnc3cc(NC(=O)CCl)ccc23)c1

>  <numeric value>
-55.8

$$$$
>  <compound>
Cc1ccccc1N1CCN(C(=S)c2ccccc2)CC1

>  <numeric value>
105

$$$$
>  <compound>
CCN1C2CCC1/C(=C\c1ccccc1)C(=O)/C2=C/c1ccccc1

>  <numeric value>
42.8

$$$$
>  <compound>
Cc1nc2ccccc2c(/C=C/c2ccc(F)cc2)c1C(=O)/C=C/c1ccccc1

>  <numeric value>
37.9

$$$$
>  <compound>
CC(=O)c1sc(-c2ccc(F)cc2)cc1O

>  <numeric value>
97.2

$$$$
>  <compound>
Cn1cc(-c2csc(-c3cn(CCCN4CCOCC4)c4ccc(F)cc34)n2)c2cccnc21

>  <numeric value>
66.6

$$$$
>  <compound>
O=C(NNc1nc2cc(F)ccc2n2c(CN3CCOCC3)ccc12)c1ccccc1

>  <numeric value>
14.8

$$$$
>  <compound>
Cc1cc(=O)oc2cc(Oc3nc(Br)cn4c(Br)cnc34)ccc12

>  <numeric value>
56.6

$$$$
>  <compound>
O=Nc1ccc(NC(=O)Nc2ccc([N+](=O)[O-])cc2)cc1

>  <numeric value>
104

$$$$
>  <compound>
CCCCNC(=O)c1ccc2c(c1)nc(-c1ccccc1)n2C1CCCCC1

>  <numeric value>
104

$$$$
>  <compound>
COc1ccc(-c2cc(C(=O)N3N=C(c4ccc(N)cc4)CC3c3ccc(Cl)cc3)c3cc(OC)ccc3n2)cc1 (configuration not stated)

>  <numeric value>
68.4

$$$$
>  <compound>
O=c1oc2c(cnc3ccccc32)cc1-c1cccc(Cl)c1

>  <numeric value>
98.8

$$$$
>  <compound>
Cc1ccc(C)c2c1sc1nc(N3CCOCC3)c(C#N)c(=O)n12

>  <numeric value>
88

$$$$
>  <compound>
CCC(C)(C)c1ccc(Nc2ccc(Nc3ccc(C(C)(C)CC)cc3)cc2)cc1

>  <numeric value>
98.6

$$$$
>  <compound>
CC(C)Cc1nc(Nc2ccccc2)[nH]c(=O)c1C#N

>  <numeric value>
63.3

$$$$
>  <compound>
O=c1cc(CP(=O)(O)O)c2cc(O)c(-c3ccccc3)cc2o1

>  <numeric value>
99

$$$$
>  <compound>
Cn1c(=O)[nH]c(=O)c2nc3c(nc21)-c1ccccc1C3=O

>  <numeric value>
99.3

$$$$
